Source of measurements: patent US20050058639A1

For each record, write down the corresponding ELISA OD.
test system: T1, human GRO/MGSA (human, UniProt P09341 35-107)
T1 construct: also called hGRO/MGSA; GRO-alpha
T1 sequence (looked up): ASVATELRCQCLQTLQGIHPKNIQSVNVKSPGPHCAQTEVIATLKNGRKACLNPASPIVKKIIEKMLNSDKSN
procedure text: ELISA, coated antigen
Please make sure the unit comes right after the number.

{"binder": "anti-MCP-1 mAb 3.16.1 (antibody, V domains shown) VH: QVQLVQSGAEVKKPGASVKVSCKVSGYTLTDLSMHWVRQAPGKGLEWMGGFDPEDGETIYAQKFQGRVTMTEDTSSDTAYMELSSLRSEDTAVYYCATHEFWSGYFDYWGQGTLVTVSS VL: DIVMTQSPDSLAVSLGERATINCKSSQSVLFSSNNKSYLTWYQQKPGQPPKLLIFWASIRESGVPDRISGSGSGTDLTLTISSLQAEDAAVYYCQQYYSSPWTFGQGTKVEIKR", "readout": "ELISA OD", "result": "0.043 OD450"}
{"binder": "anti-MCP-1 mAb 3.11.1 (antibody, human IgG4, kappa, V domains shown) VH: QVQLQESGPGLVKPSQTLSLTCTVSGGSISSGGNYWNWIRQHPGKGLEWIGYIYYSGNTYYNPSLKSRITISIDTSKNQFSLTLSSVTAADTAVYYCARDGGDDAFDIWGQGTMVTVSS VL: DIQMTQSPSSLSASVGDRVTITCQASQDISNYLNWYQQKPGKAPKLLIYDASNLETGVPSRFSGSGSGTDFTFTINSLQPEDIATYYCQEYNNLPYSFGQGTKLEIKR", "readout": "ELISA OD", "result": "0.054 OD450"}

Now for the binder whose ELISA OD we want.
Give its ELISA OD value. Item: anti-MCP-1 mAb 1.1.1 (antibody, human IgG2, kappa, V domains shown) VH: QVQLVQSGAEVKKPGASVKVSCKVSGYTLTELSMHWVRQAPGNGLEWMGGFDPEDGETIYAQRFQGRVVMTEDPSTDTAYMELSSLRSEDTAVYYCATNEFWSGYFDYWGQGTLVTVSS VL: DIVMTQSPDSLAMSLGERATINCKSSQSVLYSSNNKNYLVWYQQKPGQPPKLLIYWASIRESGVPDRFSSSGSETDFTLTISSLQAEDVAVYYCQQYFSSPWTFGQGTKVEIKR
0.047 OD450
